Data provenance is paper PMC3006138.

Assay: Rat 28-day toxicokinetics
Format: in vivo
Details: both sexes, Sprague-Dawley (Crl:CD (SD)IGS BR), plasma, po, 200 mg/kg/day, 200 mg/kg/day po, day 14
Protocol: In the rat repeated-dose toxicokinetic study, fexinidazole was administered orally by gavage once a day for 28 consecutive days to ten or fifteen Crl:CD (SD)IGS BR rats/sex/group at doses of 50, 200, or 800 mg/kg/day. […] Systemic exposure to fexinidazole and its sulfoxide and sulfone metabolites was evaluated in three additional animals/sex/group. […] ULOQ Upper limit of quantification […] 24 hours post dosing was calculated and denoted AUC0-24. […]
Experimental endpoint: Cmax (ng/mL)
Provide only the numeric value, understood in ng/mL.

Compound	Unit of measurement	Cmax
Cn1c([N+](=O)[O-])cnc1COc1ccc(S(C)(=O)=O)cc1	ng/mL	20200

[in] Looking for the measured Cmax of "CSc1ccc(OCc2ncc([N+](=O)[O-])n2C)cc1" , can you help?
[out] 520

[in] Request the reported Cmax associated with Cn1c([N+](=O)[O-])cnc1COc1ccc([S+](C)[O-])cc1 (stereo not drawn) [Fexinidazole sulfoxide]
[out] 15800

---

The following compounds are listed with their measured half-life values.
assay: Half-life after oral treatment across species; type: in vivo; conditions: mouse, rat, dog, plasma, mice, rats and dogs

Previously resolved entries follow.
Compound	Result
Cn1c([N+](=O)[O-])cnc1COc1ccc([S+](C)[O-])cc1 (stereo not drawn) [Fexinidazole sulfoxide]	2 to 7 h
CSc1ccc(OCc2ncc([N+](=O)[O-])n2C)cc1	1 to 3 h

Here is the next item to consider.
[in] Query (compound): "Cn1c([N+](=O)[O-])cnc1COc1ccc(S(C)(=O)=O)cc1" ; field requested: half-life
[out] ≤ 24 h

---

test: Rat 28-day toxicokinetics; assay type: in vivo; conditions: male, Sprague Dawley (Crl:CD (SD)IGS BR), plasma, po, 200 mg/kg/day, Day 28, male, read-out: AUC0-t(last)
Catalogue of compounds with associated AUC(0-t)
Quick note: give the figure in ng·h/mL, leave out the unit.

Compound	AUC(0-t) / ng·h/mL
Cn1c([N+](=O)[O-])cnc1COc1ccc([S+](C)[O-])cc1 (centres unmarked) [Fexinidazole sulfoxide]	138000

[in] What value of AUC(0-t) has been recorded for this entry: "CSc1ccc(OCc2ncc([N+](=O)[O-])n2C)cc1"
[out] 4410

---

Entries and their AUC(0-t)
assay: Rat 28-day toxicokinetics; format: in vivo; settings: both sexes, Sprague-Dawley (Crl:CD (SD)IGS BR), plasma, po, 200 mg/kg/day, 200 mg/kg/day po, day 14, read-out: AUC0-t(last)

Guide cases for AUC(0-t), answers given:
Molecule	AUC(0-t)
CSc1ccc(OCc2ncc([N+](=O)[O-])n2C)cc1	3.02 µg·h/mL
Cn1c([N+](=O)[O-])cnc1COc1ccc([S+](C)[O-])cc1 (stereo not drawn) [Fexinidazole sulfoxide]	118 µg·h/mL

[in] Using the record for "Cn1c([N+](=O)[O-])cnc1COc1ccc(S(C)(=O)=O)cc1" , report its AUC(0-t).
[out] 287 µg·h/mL

---

# half-life listing for each entry below
assay: Rat 28-day toxicokinetics; type: in vivo; settings: Sprague Dawley (Crl:CD (SD)IGS BR), plasma, po, 50 mg/kg/day, Day 28, male, read-out: apparent terminal half-life (converted)
Give just the number in h; leave the unit off.

Molecule	Unit of measurement	half-life
Cn1c([N+](=O)[O-])cnc1COc1ccc(S(C)(=O)=O)cc1 [Fexinidazole sulfone]	h	6.1
Cn1c([N+](=O)[O-])cnc1COc1ccc([S+](C)[O-])cc1 (stereo not drawn) [Fexinidazole sulfoxide]	h	5

[in] # half-life lookup, item CSc1ccc(OCc2ncc([N+](=O)[O-])n2C)cc1 [Fexinidazole]
[out] 4.7
